assay: NCI Yeast Anticancer Drug Screen. Data for the sgs1 mgt1 strain (AID 161);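 further: 0% = growth of cultures given vehicle only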; conditions: S. cerevisiae sgs1 mgt1 strain, at 5.0 µM (retest, dose inferred, filed as 0.5), stronger effect = higher value
About 79,000 compounds went through this panel and 15% of them were active in at least one assay; those are over-represented in the sample as a whole.
Please respond with reported growth inhibition for every item in the list.
Give bare numbers, in %.

Worked cases, growth inhibition given:
COMPOUND: CCCCCCC[n+]1ccc(C(=O)c2ccccc2)cc1
VALUE UNIT: %
growth inhibition: 100

COMPOUND: CS(=O)(=O)OCCN(CCOS(C)(=O)=O)c1ccc(C=Nc2ccc(-c3csc(-c4ccc(Cl)cc4)n3)cc2)cc1
VALUE UNIT: %
growth inhibition: 36

COMPOUND: CC1(c2cccs2)C(C#N)(C#N)C1(C#N)C#N
VALUE UNIT: %
growth inhibition: 17

COMPOUND: Cc1cc(Br)cc(C)c1NC(=O)C(=O)C(C(=O)c1ccc2ccccc2c1)C1OC(=O)c2ccccc21 (stereo unspecified)
VALUE UNIT: %
growth inhibition: 10

COMPOUND: Cc1ccc(OC/C=C/c2cccc(C#N)c2)cc1
VALUE UNIT: %
growth inhibition: 0

COMPOUND: COc1cc(/C=C\C(=O)c2cccc(O)c(=O)c2)cc(OC)c1OC
VALUE UNIT: %
growth inhibition: 16

COMPOUND: O=[N+]([O-])c1ccc(N=C(Cl)C(Cl)(c2ccccc2)c2ccccc2)cc1
VALUE UNIT: %
growth inhibition: -20

COMPOUND: ClC1=C(Cl)C(Cl)(Cl)C(Cl)(Cl)C1(Cl)Cl
VALUE UNIT: %
growth inhibition: 59

COMPOUND: C1=C(C2=CCCc3ccccc32)c2ccccc2CC1
VALUE UNIT: %
growth inhibition: -3

COMPOUND: OC(COc1ccc(Cl)cc1)CN1CCN(c2cccc(Cl)c2)CC1 (stereo unspecified)
VALUE UNIT: %
growth inhibition: 80

As a next step, examine the compound that follows.
Would you mind telling me what growth inhibition value was observed for `O=C(Nc1ccccc1C(=O)O)c1ccccc1` ?
-5
